# Test system: Vero cells
# test_method_notes: Cytotoxicity, Vero cells, Alamar Blue
# Type: cell-based
# condition_set: 25 μM, 20 hours
Doc: threshold 80% (exclusive). Items with Cell viability (% of control) beneath it return Satisfied; others return Not satisfied.

- compound: "Cc1c(NC(=O)OC(C)(C)C)ccc2nc(N[C@H](C(=O)N(C)CCc3ccncc3)C(C)C)oc(=O)c12 [Compound No.53]"
  assigned_label: "Not satisfied"
- compound: "Cc1c(NC(=O)OC(C)(C)C)ccc2nc(NC(C)(C)C(=O)N(C)Cc3ccccn3)oc(=O)c12 [Compound No.59]"
  assigned_label: "Not satisfied"
- compound: "Cc1c(NC(=O)OC(C)(C)C)ccc2nc(N3CCCC[C@H]3C(=O)NCc3ccncc3)oc(=O)c12 [Compound No.104]"
  assigned_label: "Satisfied"
- compound: "Cc1c(NC(=O)OC(C)(C)C)ccc2nc(N[C@H](C(=O)NCc3cccnc3)C(C)C)oc(=O)c12 [Compound No.24]"
  assigned_label: "Not satisfied"
- compound: "Cc1c(NC(=O)c2scc(S(=O)(=O)C(C)C)c2Cl)ccc2nc(NC(C)(C)C(=O)N(C)CCc3ccccn3)oc(=O)c12 [Compound No.180]"
  assigned_label: "Not satisfied"
- compound: "Cc1c(NC(=O)OC(C)(C)C)ccc2nc(N[C@@H](CC(C)C)C(=O)NCc3ccccn3)oc(=O)c12 [Compound No.36]"
  assigned_label: "Not satisfied"
- compound: "Cc1c(NC(=O)OC(C)(C)C)ccc2nc(N[C@H](C(=O)N(C)Cc3ccccn3)C(C)(C)C)oc(=O)c12 [Compound No.60]"
  assigned_label: "Not satisfied"
- compound: "Cc1c(NC(=O)OC(C)(C)C)ccc2nc(N[C@@H](CC3CCCCC3)C(=O)NCc3cccnc3)oc(=O)c12 [Compound No.27]"
  assigned_label: "Not satisfied"
- compound: "Cc1c(NC(=O)CCC2CCCCC2)ccc2nc(NC(C)(C)C(=O)N(C)CCc3ccccn3)oc(=O)c12 [Compound No.160]"
  assigned_label: "Satisfied"
- compound: "Cc1c(NC(=O)c2cccc(C#N)c2)ccc2nc(NC(C)(C)C(=O)N(C)CCc3ccccn3)oc(=O)c12 [Compound No.143]"
  assigned_label: "Not satisfied"
- compound: "Cc1c(NC(=O)OC(C)(C)C)ccc2nc(N[C@@H](Cc3ccccc3)C(=O)N(C)Cc3ccccn3)oc(=O)c12 [Compound No.57]"
  assigned_label: "Satisfied"
- compound: "Cc1c(NC(=O)OC(C)(C)C)ccc2nc(N[C@H](C(=O)N(C)CCc3ccccn3)C(C)(C)C)oc(=O)c12 [Compound No.44]"
  assigned_label: "Satisfied"
- compound: "Cc1c(NC(=O)c2ccc([N+](=O)[O-])cc2)ccc2nc(NC(C)(C)C(=O)N(C)CCc3ccccn3)oc(=O)c12 [Compound No.142]"
  assigned_label: "Satisfied"

====

Reported values of EC90 for individual entries
# Test system: HSV-1
# test_method_notes: Antiviral activity, HSV-1 in Vero cells, plaque method
# Format: cell-based
# condition_set: Human alphaherpesvirus 1, 20 hours, 90% inhibition of plaque formation

- compound_string: "Cc1c(NC(=O)OC(C)(C)C)ccc2nc(NC3(C(=O)N(C)CCc4cccnc4)CCCC3)oc(=O)c12"
  system: "HSV-1"
  comparator: "="
  EC90 (µM): 8.6
- compound_string: "Cc1c(NC(=O)OC(C)(C)C)ccc2nc(N3Cc4ccccc4C[C@H]3C(=O)NCCc3ccccn3)oc(=O)c12"
  system: "HSV-1"
  comparator: "="
  EC90 (µM): 11
- compound_string: "Cc1c(NC(=O)OC(C)(C)C)ccc2nc(N(C)[C@@H](C)C(=O)N(C)Cc3ccccn3)oc(=O)c12"
  system: "HSV-1"
  comparator: ">"
  EC90 (µM): 12.5
- compound_string: "Cc1c(NC(=O)c2ccccc2Cl)ccc2nc(NC(C)(C)C(=O)N(C)CCc3ccccn3)oc(=O)c12"
  system: "HSV-1"
  comparator: "="
  EC90 (µM): 7.6
- compound_string: "Cc1c(NC(=O)CCCNC(=O)c2cccs2)ccc2nc(N[C@@H](C)C(=O)N(C)CCc3ccccn3)oc(=O)c12"
  system: "HSV-1"
  comparator: ">"
  EC90 (µM): 12.5
- compound_string: "Cc1c(NC(=O)OC(C)(C)C)ccc2nc(N[C@@H](C)C(=O)N(C)CCc3ccccn3)oc(=O)c12"
  system: "HSV-1"
  comparator: "="
  EC90 (µM): 9.1
- compound_string: "Cc1c(NC(=O)OC(C)(C)C)ccc2nc(N[C@@H](CC3CCCCC3)C(=O)N(C)CCc3cccnc3)oc(=O)c12"
  system: "HSV-1"
  comparator: "<"
  EC90 (µM): 3.2

Data provenance is patent US20040116420A1.
